From: the NIST ThermoML archive (doi:10.1021/acs.jced.5b00105)

Measured mass density values are reported for all entries that follow.
- measurement setup: 303.15 K; 100 kPa; Liquid; Vibrating tube method
measure: mass density (kg/m3)

[
  {
    "compound": "CCCCC1CCCCC1 [butylcyclohexane]",
    "result": 791.88
  },
  {
    "compound": "CCC1CCCCC1 [ethylcyclohexane]",
    "result": 779.93
  },
  {
    "compound": "CC1CCCCC1 [methylcyclohexane]",
    "result": 760.71
  },
  {
    "compound": "CC(C)CC(C)(C)C [2,2,4-trimethylpentane]",
    "result": 683.68
  }
]

* * *

- measurement setup: 318.15 K; 100 kPa; Liquid; Vibrating tube method

[
  {
    "chemical smiles": "CC(C)CC(C)(C)C",
    "mass density, kg/m3": 671.05
  },
  {
    "chemical smiles": "CC1CCCCC1",
    "mass density, kg/m3": 747.58
  },
  {
    "chemical smiles": "CCC1CCCCC1",
    "mass density, kg/m3": 767.69
  },
  {
    "chemical smiles": "CCCCC1CCCCC1",
    "mass density, kg/m3": 780.49
  }
]
